The values you see were collected from PubChem BioAssay AID758.

System: Rab7 GTPase wild type (dog), Bodipy-FL-GTP binding
Test: modulators of GTP binding to Rab7, primary screen, biochemical, wildtype, multiplex bead flow cytometry (AID 758);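 also: median green fluorescence of bound Bodipy-FL-GTP per Rab7 bead population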
Details: GST-Rab7 beads, fluorescent GTP binding, at 10 µM, actives lie on both sides, untreated = 100%, excess cold GTP = 0%
Among all 190,000 compounds or so, about 110 (0.058%) were called active. Not shown: some 2% with an inconclusive outcome. For the sample, actives were picked, then their nearest neighbours and some compounds at random.
observed_property: GTP binding activity (percent of control) (%)

molecule: Cc1ccccc1NS(=O)(=O)CCCCC(Cl)(Cl)Cl
reported_result: 96
//
molecule: S=C(NCCc1ccccc1)N1CCn2cccc2C1c1ccncc1 (stereo unspecified)
reported_result: 91
//
molecule: CC(C)CNC(=O)/C=C/C(=O)O
reported_result: 105
//
molecule: COCCCNC(=S)NNC(=O)C(O)(c1ccccc1)c1ccccc1
reported_result: 109
//
molecule: COc1ccc(NC(=O)c2c(SC)nsc2SC)cc1
reported_result: 103
//
molecule: COC(=O)c1c(NC(C)=O)sc(C(=O)Nc2ccccc2OC)c1C
reported_result: 106

---

System: Rab7 GTPase wild type (dog), Bodipy-FL-GTP binding
Test: modulators of GTP binding to Rab7, primary screen, biochemical, wildtype, multiplex bead flow cytometry (AID 758);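 also: median green fluorescence of bound Bodipy-FL-GTP per Rab7 bead population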
Conditions: GST-Rab7 beads, fluorescent GTP binding, at 10 µM, actives lie on both sides, untreated = 100%, excess cold GTP = 0%
About 110 (0.058%) of roughly 190,000 compounds were called active. Another 2% or so got no clear call; they are omitted. Many of the other results were omitted from the sample, so actives are more common in it than they were.
observed_property: GTP binding activity (percent of control) (%)

compound: Cc1ccc(/C=N/NC(=O)Cn2ccc(C(F)(F)F)n2)o1
measured_on: Rab7 GTPase wild type (dog), Bodipy-FL-GTP binding
endpoint_unit: %
reported_result: 105

compound: COc1cccc(CN(C)CC(=O)Nc2ccccc2C(=O)Nc2ccccc2)c1
measured_on: Rab7 GTPase wild type (dog), Bodipy-FL-GTP binding
endpoint_unit: %
reported_result: 105

compound: CN(CC(=O)Nc1ccccc1F)CC(=O)Nc1ccccc1Br
measured_on: Rab7 GTPase wild type (dog), Bodipy-FL-GTP binding
endpoint_unit: %
reported_result: 105

compound: O=C(NC(Cc1c[nH]c2ccccc12)C(=O)O)/C(=C/c1ccco1)NC(=O)c1ccccc1 (stereo not drawn)
measured_on: Rab7 GTPase wild type (dog), Bodipy-FL-GTP binding
endpoint_unit: %
reported_result: 98

compound: COc1ccc(-c2nn(-c3ccccc3)cc2/C=C\C(=O)N2CCOCC2)cc1[N+](=O)[O-]
measured_on: Rab7 GTPase wild type (dog), Bodipy-FL-GTP binding
endpoint_unit: %
reported_result: 93

compound: Cc1ccc(NC(=O)Cn2c(=O)n(CCC(=O)NC3CCN(Cc4ccccc4)CC3)c(=O)c3ccccc32)cc1
measured_on: Rab7 GTPase wild type (dog), Bodipy-FL-GTP binding
endpoint_unit: %
reported_result: 102

compound: Cc1ccc(-c2cc(C(F)(F)F)n3ncc(C(=O)N4CCCCC4c4cccnc4)c3n2)cc1 (stereo not drawn)
measured_on: Rab7 GTPase wild type (dog), Bodipy-FL-GTP binding
endpoint_unit: %
reported_result: 97

compound: O=C(O)CCCCOn1ccnc1
measured_on: Rab7 GTPase wild type (dog), Bodipy-FL-GTP binding
endpoint_unit: %
reported_result: 97

compound: CCOC(=O)CNC(=O)CSc1ccc2nnc(-c3cccnc3)n2n1
measured_on: Rab7 GTPase wild type (dog), Bodipy-FL-GTP binding
endpoint_unit: %
reported_result: 96

compound: CN(CCc1cnn(C)c1)Cc1cn(C)nc1-c1ccccc1F
measured_on: Rab7 GTPase wild type (dog), Bodipy-FL-GTP binding
endpoint_unit: %
reported_result: 100

compound: O=C(CN1C(=O)c2cccc3cccc1c23)Nc1ccccc1
measured_on: Rab7 GTPase wild type (dog), Bodipy-FL-GTP binding
endpoint_unit: %
reported_result: 98

compound: Cc1nc2sc3c(c2c(=O)n1NC(=O)CCl)CCCC3
measured_on: Rab7 GTPase wild type (dog), Bodipy-FL-GTP binding
endpoint_unit: %
reported_result: 90

compound: Cn1cnnc1SCC(=O)Nc1ccc(N2CCOCC2)cc1
measured_on: Rab7 GTPase wild type (dog), Bodipy-FL-GTP binding
endpoint_unit: %
reported_result: 98

compound: CC1=CC=CN2C1=NC(=O)CC2(C)C(=O)N(CC(=O)NC1CCCC1)c1ccccc1C (stereo not drawn)
measured_on: Rab7 GTPase wild type (dog), Bodipy-FL-GTP binding
endpoint_unit: %
reported_result: 104

compound: COc1c(F)c(F)c(C(=O)O)c(Nc2ccccc2C)c1F
measured_on: Rab7 GTPase wild type (dog), Bodipy-FL-GTP binding
endpoint_unit: %
reported_result: 96

compound: O=C(O)/C=C/C(=O)NNc1ccc([N+](=O)[O-])cc1
measured_on: Rab7 GTPase wild type (dog), Bodipy-FL-GTP binding
endpoint_unit: %
reported_result: 96

compound: CC(=O)c1cccc(NC(=O)[C@@H](NC(N)=O)C(C)C)c1
measured_on: Rab7 GTPase wild type (dog), Bodipy-FL-GTP binding
endpoint_unit: %
reported_result: 96

compound: CCCCn1c(N)c(N2CCOCC2)c(=O)n(CC(=O)NCCc2ccccc2)c1=O
measured_on: Rab7 GTPase wild type (dog), Bodipy-FL-GTP binding
endpoint_unit: %
reported_result: 105

compound: CCOc1c(CNCc2ccc(C(=O)O)cc2)cccc1OC
measured_on: Rab7 GTPase wild type (dog), Bodipy-FL-GTP binding
endpoint_unit: %
reported_result: 103

compound: O=C(Nc1cccnc1)c1cccc(S(=O)(=O)N2CCCC2)c1
measured_on: Rab7 GTPase wild type (dog), Bodipy-FL-GTP binding
endpoint_unit: %
reported_result: 94

compound: CC(C)CC(CC(C)C)=NNC(=O)c1ccc(CSc2nncn2C)cc1
measured_on: Rab7 GTPase wild type (dog), Bodipy-FL-GTP binding
endpoint_unit: %
reported_result: 104

compound: CC(=O)NC(=S)NNC(=O)c1ccc(Br)cc1
measured_on: Rab7 GTPase wild type (dog), Bodipy-FL-GTP binding
endpoint_unit: %
reported_result: 108

compound: Cc1ccc(NC(=S)NC(=O)c2ccc(-c3ccccc3)cc2)c(C)c1
measured_on: Rab7 GTPase wild type (dog), Bodipy-FL-GTP binding
endpoint_unit: %
reported_result: 100

---

Test system: Rab7 GTPase wild type (dog), Bodipy-FL-GTP binding
Test: modulators of GTP binding to Rab7, primary screen, biochemical, wildtype, multiplex bead flow cytometry (AID 758);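 also: median green fluorescence of bound Bodipy-FL-GTP per Rab7 bead population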
Conditions: GST-Rab7 beads, fluorescent GTP binding, at 10 µM, actives lie on both sides, untreated = 100%, excess cold GTP = 0%
Hit rate of the full screen: of about 190,000 compounds, about 110 (0.058%) were called active. Roughly 2% stayed inconclusive and do not appear here. Shown is part of a subset that was picked to be rich in actives.
observed_property: GTP binding activity (percent of control) (%)

compound: CCOC(=O)C1(CCOc2ccccc2)CCN(C(=O)c2cncs2)CC1
endpoint_unit: %
reported_result: 93

compound: CCOCCCNCc1cc(Br)ccc1OCC
endpoint_unit: %
reported_result: 95

compound: CC(=O)Nc1ccc(Nc2nc3c(S(=O)(=O)c4ccc(C)c(C)c4)nnn3c3ccccc23)cc1
endpoint_unit: %
reported_result: 97

compound: CCCN(CCC)CCCNC(=O)CNC(=O)c1nn(-c2ccc(OC)cc2)c(=O)c2ccccc12
endpoint_unit: %
reported_result: 95

compound: CC(CC(=O)Nc1ccccc1)n1ccnc1 (stereo not drawn)
endpoint_unit: %
reported_result: 96

compound: O=C(Nc1ccc(Br)cn1)c1ccc([N+](=O)[O-])cc1Cl
endpoint_unit: %
reported_result: 98

compound: CCc1ccc(CN(C)C(=O)CCc2nnc(-c3ccc(-c4ccccc4)cc3)o2)nc1
endpoint_unit: %
reported_result: 96

compound: COc1cc(OC)cc(-c2nnc(SCC(=O)Nc3ccc(C(=O)O)cc3)s2)c1
endpoint_unit: %
reported_result: 93

compound: OCCNCc1cccc(OCc2ccccc2Cl)c1
endpoint_unit: %
reported_result: 97

compound: OCCC1CN(Cc2cnc(-c3ccccc3)s2)CCN1CCc1ccccc1 (stereo not drawn)
endpoint_unit: %
reported_result: 106

compound: CC(OC(=O)CCc1nc(=O)c2ccccc2n1C)C(=O)NCc1ccc2c(c1)OCO2 (stereo not drawn)
endpoint_unit: %
reported_result: 97

compound: OCC1(Cc2ccccc2C(F)(F)F)CCN(Cc2cccc3cnccc23)CC1
endpoint_unit: %
reported_result: 96

compound: O=C(C1CCCO1)N(c1ccc(F)cc1)C1C=CS(=O)(=O)C1 (stereo not drawn)
endpoint_unit: %
reported_result: 103

compound: Cc1ccc(C2NC(C(=O)O)CS2)cc1 (stereo not drawn)
endpoint_unit: %
reported_result: 103

compound: COc1ccc2c(c1)CCC/C2=N\OC(=O)c1ccccc1F
endpoint_unit: %
reported_result: 105

compound: Cc1cc(=O)n2[nH]c(-c3sccc3-n3c(C)ccc3C)cc2n1
endpoint_unit: %
reported_result: 91

compound: C/C(CC(=O)N1CCN(C=O)CC1)=N\NC(=O)c1ccc(Br)cc1
endpoint_unit: %
reported_result: 102

compound: Fc1cc(Br)ccc1NC(=S)Nc1cccnc1
endpoint_unit: %
reported_result: 104

compound: O=C(COC(=O)c1ccccn1)Nc1cccc2ccccc12
endpoint_unit: %
reported_result: 108

compound: CC(C)(C)NC(=O)COC(=O)c1cc(Cl)ccc1[N+](=O)[O-]
endpoint_unit: %
reported_result: 102

compound: CCOc1cnc(-c2c(-c3ccccc3Cl)noc2C)o1
endpoint_unit: %
reported_result: 96

compound: COc1ccccc1-c1nc(SC)n[nH]1
endpoint_unit: %
reported_result: 97

compound: COc1ccc(NS(=O)(=O)c2cc(NC(=O)CC(=O)c3ccc([N+](=O)[O-])cc3)ccc2C)cc1
endpoint_unit: %
reported_result: 106
